Target: human LPA1 (Homo sapiens, UniProt Q92633)
Sequence (Q92633 whole entry): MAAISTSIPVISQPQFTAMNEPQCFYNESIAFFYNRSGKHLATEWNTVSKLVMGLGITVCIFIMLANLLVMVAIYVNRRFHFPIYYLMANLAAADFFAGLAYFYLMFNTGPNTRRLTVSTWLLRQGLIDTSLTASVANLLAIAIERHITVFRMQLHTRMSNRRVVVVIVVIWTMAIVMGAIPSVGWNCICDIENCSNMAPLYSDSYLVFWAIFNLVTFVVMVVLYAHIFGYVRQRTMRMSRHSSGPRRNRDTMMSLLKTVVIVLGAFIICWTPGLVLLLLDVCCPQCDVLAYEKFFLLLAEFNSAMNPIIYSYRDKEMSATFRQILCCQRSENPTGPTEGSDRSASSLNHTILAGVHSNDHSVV
Assay: LPA1 functional antagonist assay (calcium flux)
Conditions: CHO cells overexpressing human LPA1; inhibition of calcium flux induced by 10 nM LPA; read-out: hLPA1 IC50
pIC50: −log10 of the molar value.

{"columns": ["item_smiles", "pIC50"],
 "data": [
  ["Cc1nc(-c2nnn(C)c2COc2cc(NC3CC3)ncn2)ccc1O[C@H]1CCC[C@H](C(=O)O)C1", 7.19],
  ["CCCCc1ncnc(NCc2c(-c3ccc(O[C@H]4CCC[C@H](C(=O)O)C4)cn3)nnn2C)n1", 7.17],
  ["Cc1nc(-c2nnn(C)c2CNc2nccc(Oc3ccc(Cl)cc3)n2)ccc1O[C@H]1CCC[C@H](C(=O)O)C1", 7.35]
]}
